experimental.details: yeast display, Sf9 membrane polyspecificity reagent, FACS + sequencing; frameworks hold sequencing errors

{"input.sequence": "QVQLQESGGGLVQAGGILRRSCAACGNIFPSAVMGWYRQALGKEREFVATINSGSNTYYADSVKGRFTISRDNAKNTVYLQMNSLKLEDTAVYYCAAYFKLPAWHTYWGQGTQVTVSS", "polyreactivity (PSR sort gate)": "low polyreactivity"}
{"input.sequence": "QVQLVESGGGLVQAGGSLRLSCSASGITFLANAMAWYRPATGKERELVATITSRGASSYYADSVKVRFTISRDNAKNTVYLQMNSLKPEDTAVYYCAATVRRRYERYNDWAQGTQVTVSS", "polyreactivity (PSR sort gate)": "high polyreactivity"}
{"input.sequence": "QVQLQECGGGLVQAGGSLRLSCAASGNIFDAYIMGWYRQAPGKERELVASVTDGGSTNYADSVKGRFTISRDNAKNTVYLQMNSLKPEDTAVYYCAAIVYPDILTYFDYDYDYFYWGQGTQVTVGS", "polyreactivity (PSR sort gate)": "low polyreactivity"}
{"input.sequence": "QVQLVESGGGLVQAGGSLRLSCAASGFIFAYYAMGLYRQAPGKERELVAAITSDGSTYYADSVKGRFTISRDNAKNTVYLQMNSLKPEDTAVYYCNTYWVLRPGYNYWGQGTQVTVSS", "polyreactivity (PSR sort gate)": "high polyreactivity"}
{"input.sequence": "QVQLVESGGGLVQAGGSLRLSCAASGRTFLRNAMRWYRQAPGKERELVATISIGGRTYYADSVKGRFTISRDNAKNTVYLQMNSLKPEDTAVYYCNASTSILSLDWEYGSWGQGTQVTVSS", "polyreactivity (PSR sort gate)": "low polyreactivity"}

* * *

experimental.details: yeast display, Sf9 membrane polyspecificity reagent, FACS + sequencing; frameworks hold sequencing errors
endpoint: polyreactivity (PSR sort gate)

{"input.sequence": "QVQLVESGGGLVQAGGSLRLSCAASGFTFSKYAMGWYRQAPGKERELVAAITSGDDTNYADSVKGRFTISRDNAKNTVYLQMNSLKPEDTAVYYCNAEYTVYYSYWAIGVDYWGQGTQVTVSS", "endpoint": "polyreactivity (PSR sort gate)", "result": "high polyreactivity"}
{"input.sequence": "QVQLVESGGGLVQAGGSLRLSCAASGSTFYYNAMGWYRQAPGKEREFVAAISSRGGSTYYADSVKGRFTISRDNAKNTVYLQMNSLKPEDTAVYYCAAKYRHRYDWGQGTQVTVSS", "endpoint": "polyreactivity (PSR sort gate)", "result": "high polyreactivity"}

* * *

experimental.details: yeast display, Sf9 membrane polyspecificity reagent, FACS + sequencing; frameworks hold sequencing errors

{"input.sequence": "QVQLVESGGGLVQAGGSLRLSCAASGIIFGRYAMGWYRQAPGKERELVAAITRSGGRTYYADSVKGRFTISRDNAKNTVYLQMNSLKPEDTAVYYCAADASGHSYDYWGQGTQVTVSS", "polyreactivity (PSR sort gate)": "high polyreactivity"}
{"input.sequence": "QVQLVESGGGLVQAGGSLRLSCAASGLIFRRYVLGWYRQAPGKEWELVAAISATGSRTYYADSVKGRFTISRDNAKNTVYLQRNSLKPEDNAVYYCAAYRGPRIYRYDYWGQVTQVTVSS", "polyreactivity (PSR sort gate)": "high polyreactivity"}

* * *

experimental.details: yeast display, Sf9 membrane polyspecificity reagent, FACS + sequencing; frameworks hold sequencing errors
endpoint: polyreactivity (PSR sort gate)

{"input.sequence": "QVQLVESGGGLVHAGGCLRLSCAASGRNFYYYTMGWSRQEPGKERELVASISRSGDRTYYADSVKGRFTISRDYAKNTVYLQMNSLKPEDTAVYYCNAQKYPRYSRTSGRNYFFWGQGTQVTVSS", "result": "high polyreactivity"}
{"input.sequence": "QVQLVESGGGLVQAGGSLRLSCAASGYTFSLNAMGWYRQAPGKERELVAAIRGGGSTNYADSVKGRFTISRDNAKKTVYLQMNSLKPEDTAVYYCAASSYNGHVYWGQGTQVTVSS", "result": "low polyreactivity"}
{"input.sequence": "QVQLVESGGGLVQAGGSLRLTCAASGSTFKQNVMGWYRQAPGKERELVAAITSGGSTNYADSVKGRFTISRDNAKNTVYLQMNSLKPEDTAVYYCNKDTSGIYLDDYWGQGTQVTVSS", "result": "low polyreactivity"}
{"input.sequence": "QVQLVESGGGLVQAGGSLRLSCAASGSTFVYYTMGLYRQAPGKERELVAAISWRGDDTYYSDSVKGRFTISRDNAKNTVYLQMNSLKPEDTAVYYCAGEPVSTYYWTFGDYWGQGYQVTVSS", "result": "low polyreactivity"}
{"input.sequence": "QVQLVESGGGLVQAGGSLRLSCAASGRIFRHYAMGWYRQAPGKVRELVAAIRWSGGSTYYADSVKGRFTISRDNAKNTVYLQMNSLKPADTAVYYCATRDAVGHRPSGPYQLYDYWGQGTQVTVSS", "result": "low polyreactivity"}
{"input.sequence": "QDQLVESGGGLVHAGCSLRLSCAASGRTFYGNAMGWYRQAPGKERELVAGITRGGSTYYADSVKGRFTISRDNAKNNVYLQMNSLKPEDTAVYYCAATRYYSWGSRGGYWGQGTQVSVSS", "result": "high polyreactivity"}
{"input.sequence": "QVQLVESGGGLVQAGGSLRLSCAASGRIFPWNAMGWYRQAPGKERDLVAAISFSAGRTYYADSVKGRFTISRDNAKNTVYLQMNSLKPEDTAVYYCNARIGSRWVWTGIIGYEYWGQGTQVTVSS", "result": "low polyreactivity"}
{"input.sequence": "QVQLVESGGGLVQAGGSLRLSCAASGRIFSRYALGWYSPEPGKERELVAAIRSNGGRTYYADSVKGRFTISRDNAKNTVYLQMNSLKPEDTAVYYCAAAGGGKVSYRDYDYWGQGTQVTVSS", "result": "high polyreactivity"}
{"input.sequence": "QVQLVESGGGLVQAGGSLRLSCAASGSTFWDYAMGWYRQAHGKERELVAAITDSGGSTYYADSVKGRFTISRDNAKNTVYLQMNSLKPEDTAVYYCAAEAYIWWAWEYEYWGQGPQVTVSS", "result": "high polyreactivity"}
{"input.sequence": "QVQLVESGGGLVQAGGSLRLSCAASGFIIYTYAMGWYRQAPGKERELVAAISRGGRTNYADSVKGRFTISRDNAKNTVYLQMNSLKPEDTAVYYCASSYSHRYDYWGQGSQVTVSS", "result": "high polyreactivity"}
{"input.sequence": "QVQLVESGGGLVQAGGSLRLSCAASGRILTSNAMGWYRQAPGKERELVAAISWSGGSTYYADSVKGRFTISRDNAKNTVYLQMNILKPEDTAVYYCAAPLYWVDDFESGWRYYYWGQGTQVTVSS", "result": "low polyreactivity"}
